Settings: female, human, in vivo, iv
Bridge positions count the residues as written; N and C are the ends. Square brackets hold non-standard residues; d marks the D form. Peptide text beside a SMILES is read from it. * marks the point of attachment. Heptanoyl(6-Me) = CC(C)CCCCC(=O)*; Dab = NCC[C@H](N)C(=O)O
Readout type: half-life (h)
Record the value in h, omitting the unit from your answer.

*Q* Look at this compound and give its reported half-life. CC(C)CCCCC(=O)N[C@@H](CCN)C(=O)N[C@H](C(=O)N[C@@H](CCN)C(=O)N[C@H]1CCNC(=O)[C@H]([C@@H](C)O)NC(=O)[C@H](CCN)NC(=O)[C@H](CCN)NC(=O)[C@H](CC(C)C)NC(=O)[C@@H](Cc2ccccc2)NC(=O)[C@H](CCN)NC1=O)[C@@H](C)O [polymyxin B2] ({Heptanoyl(6-Me)}-[Dab]T[Dab][Dab][Dab][dF]L[Dab][Dab]T; lactam 4-C)
*A* 5.4

###

Settings: female, human, in vivo, iv, 1.5 mg/kg
Bridge positions count the residues as written; N and C are the ends. Square brackets hold non-standard residues; d marks the D form. Peptide text beside a SMILES is read from it. * marks the point of attachment. Heptanoyl(6-Me) = CC(C)CCCCC(=O)*; X1 = CC[C@H](C)CCCCC(=O)*; Dab = NCC[C@H](N)C(=O)O
Readout type: level at 0 h (ng/mL)
The reply should be a number in ng/mL, with the unit left off.

INSERT INTO assay_data (molecule, endpoint_result) VALUES
  ('CC(C)CCCCC(=O)N[C@@H](CCN)C(=O)N[C@H](C(=O)N[C@@H](CCN)C(=O)N[C@H]1CCNC(=O)[C@H]([C@@H](C)O)NC(=O)[C@H](CCN)NC(=O)[C@H](CCN)NC(=O)[C@H](CC(C)C)NC(=O)[C@@H](Cc2ccccc2)NC(=O)[C@H](CCN)NC1=O)[C@@H](C)O [polymyxin B2] ({Heptanoyl(6-Me)}-[Dab]T[Dab][Dab][Dab][dF]L[Dab][Dab]T; lactam 4-C)', 252);

For the next question, use this molecule.
*Q* Sample CC[C@H](C)CCCCC(=O)N[C@@H](CCN)C(=O)N[C@H](C(=O)N[C@@H](CCN)C(=O)N[C@H]1CCNC(=O)[C@H]([C@@H](C)O)NC(=O)[C@H](CCN)NC(=O)[C@H](CCN)NC(=O)[C@H](CC(C)C)NC(=O)[C@@H](Cc2ccccc2)NC(=O)[C@H](CCN)NC1=O)[C@@H](C)O [polymyxin B1] (X1-[Dab]T[Dab][Dab][Dab][dF]L[Dab][Dab]T; lactam 4-C) — what was its level at 0 h?
*A* 1400

###

Settings: female, human, in vivo, iv, 1.5 mg/kg
Bridge positions count the residues as written; N and C are the ends. Square brackets hold non-standard residues; d marks the D form. Peptide text beside a SMILES is read from it. * marks the point of attachment. Heptanoyl(6-Me) = CC(C)CCCCC(=O)*; X1 = CC[C@H](C)CCCCC(=O)*; Dab = NCC[C@H](N)C(=O)O
Here, each record is paired with measured level at 12 h data.
Lab book: enter the figure in ng/mL, no units written.

INSERT INTO measurements (compound, endpoint_result) VALUES
  ('CC[C@H](C)CCCCC(=O)N[C@@H](CCN)C(=O)N[C@H](C(=O)N[C@@H](CCN)C(=O)N[C@H]1CCNC(=O)[C@H]([C@@H](C)O)NC(=O)[C@H](CCN)NC(=O)[C@H](CCN)NC(=O)[C@H](CC(C)C)NC(=O)[C@@H](Cc2ccccc2)NC(=O)[C@H](CCN)NC1=O)[C@@H](C)O [polymyxin B1] (X1-[Dab]T[Dab][Dab][Dab][dF]L[Dab][Dab]T; lactam 4-C)', 1080);

Would you kindly look at the next entry?
*Q* Item CC(C)CCCCC(=O)N[C@@H](CCN)C(=O)N[C@H](C(=O)N[C@@H](CCN)C(=O)N[C@H]1CCNC(=O)[C@H]([C@@H](C)O)NC(=O)[C@H](CCN)NC(=O)[C@H](CCN)NC(=O)[C@H](CC(C)C)NC(=O)[C@@H](Cc2ccccc2)NC(=O)[C@H](CCN)NC1=O)[C@@H](C)O [polymyxin B2] ({Heptanoyl(6-Me)}-[Dab]T[Dab][Dab][Dab][dF]L[Dab][Dab]T; lactam 4-C) has what recorded level at 12 h?
*A* 214
